These measurements were taken from patent US20250051375A1.

systemName: bovine intestinal alkaline phosphatase (Bos taurus (Bovine))
Sequence (P19111 20-506): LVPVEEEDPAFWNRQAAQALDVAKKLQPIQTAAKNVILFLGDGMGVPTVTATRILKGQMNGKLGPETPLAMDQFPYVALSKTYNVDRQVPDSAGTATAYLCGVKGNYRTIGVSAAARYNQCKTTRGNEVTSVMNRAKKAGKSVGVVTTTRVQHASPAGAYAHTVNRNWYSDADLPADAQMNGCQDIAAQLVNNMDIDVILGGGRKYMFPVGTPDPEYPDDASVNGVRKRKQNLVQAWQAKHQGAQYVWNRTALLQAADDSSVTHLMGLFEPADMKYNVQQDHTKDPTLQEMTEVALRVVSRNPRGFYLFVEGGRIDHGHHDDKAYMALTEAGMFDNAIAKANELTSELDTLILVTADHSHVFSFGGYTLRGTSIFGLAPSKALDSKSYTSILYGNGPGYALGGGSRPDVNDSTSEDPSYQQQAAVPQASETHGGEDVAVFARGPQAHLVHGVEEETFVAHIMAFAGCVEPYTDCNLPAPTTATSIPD
assaySummary: BiALP: conversion by bovine intestinal alkaline phosphatase
Assay type: in vitro ADME
conditionDescription: 2 μM substrate, 100 ng/mL iALP, Tris pH 7.8, 37° C., 60 minutes
valueKind: [Compound]

[[record]]
compound = "COC(=O)N[C@H](C(=O)N[C@@H](Cc1ccc(C#Cc2cnc(N3CC4CCC(C3)N4C3COC3)nc2)cc1)[C@H](CN(Cc1c(F)cc(-c2ccn(C(F)F)n2)cc1F)NC(=O)[C@@H](NC(=O)OC)C(C)(C)C(F)(F)F)OC(=O)CC(C)(C)c1c(CC(=O)NCc2ccc(C(=O)O)cc2)cc(C)cc1OP(=O)(O)O)C(C)(C)C(F)(F)F [Example 49]"
systemname = "bovine intestinal alkaline phosphatase (Bos taurus (Bovine))"
experimentalresult = "2175 nM"

[[record]]
compound = "COC(=O)N[C@H](C(=O)N[C@@H](Cc1ccc(C#Cc2cnc(N3CC4CCC(C3)N4C3COC3)nc2)cc1)[C@H](CN(Cc1c(F)cc(-c2ccn(C(F)F)n2)cc1F)NC(=O)[C@@H](NC(=O)OC)C(C)(C)C(F)(F)F)OC(=O)CC(C)(C)c1c(CC(=O)Nc2cc(C(=O)O)cc(C(=O)O)c2)cccc1OP(=O)(O)O)C(C)(C)C(F)(F)F [Example 19]"
systemname = "bovine intestinal alkaline phosphatase (Bos taurus (Bovine))"
experimentalresult = "1405.7 nM"

[[record]]
compound = "COC(=O)N[C@H](C(=O)N[C@@H](Cc1ccc(C#Cc2cnc(N3CC4CCC(C3)N4C3COC3)nc2)cc1)[C@H](CN(Cc1c(F)cc(-c2ccn(C(F)F)n2)cc1F)NC(=O)[C@@H](NC(=O)OC)C(C)(C)C(F)(F)F)OC(=O)CC(C)(C)c1c(CC(=O)NCC(=O)NS(C)(=O)=O)cc(C)cc1OP(=O)(O)O)C(C)(C)C(F)(F)F [Example 27]"
systemname = "bovine intestinal alkaline phosphatase (Bos taurus (Bovine))"
experimentalresult = "2082.4 nM"


* * *

assaySummary: Intestinal S9 Assay (human GI S9)
Assay type: in vitro ADME
conditionDescription: human, 1.0 mg/mL S9 protein, TRIS pH 7.4, read-out: Human GI S9 T½
Item-by-item account of half-life at 2 μM
valueKind: half-life at 2 μM (h)

[[record]]
smilesstring = "COC(=O)N[C@H](C(=O)N[C@@H](Cc1ccc(C#Cc2cnc(N3CC4CCC(C3)N4C3COC3)nc2)cc1)[C@H](CN(Cc1c(F)cc(-c2ccn(C(F)F)n2)cc1F)NC(=O)[C@@H](NC(=O)OC)C(C)(C)C(F)(F)F)OC(=O)CC(C)(C)c1c(CC(=O)N2C[C@H](O)C[C@H]2C(=O)O)cc(C)cc1OP(=O)(O)O)C(C)(C)C(F)(F)F"
valuekind = "half-life at 2 μM"
experimentalresult = 12.1

[[record]]
smilesstring = "COC(=O)N[C@H](C(=O)N[C@@H](Cc1ccc(C#Cc2cnc(N3CC4CCC(C3)N4C3COC3)nc2)cc1)[C@H](CN(Cc1c(F)cc(-c2ccn(C(F)F)n2)cc1F)NC(=O)[C@@H](NC(=O)OC)C(C)(C)C(F)(F)F)OC(=O)CC(C)(C)c1c(CC(=O)N[C@@H](CCC(=O)O)C(=O)O)cc(C)cc1OP(=O)(O)O)C(C)(C)C(F)(F)F"
valuekind = "half-life at 2 μM"
experimentalresult = 3.19

[[record]]
smilesstring = "COC(=O)N[C@H](C(=O)N[C@@H](Cc1ccc(C#Cc2cnc(N3CC4CCC(C3)N4C3COC3)nc2)cc1)[C@H](CN(Cc1c(F)cc(-c2ccn(C(F)F)n2)cc1F)NC(=O)[C@@H](NC(=O)OC)C(C)(C)C(F)(F)F)OC(=O)CC(C)(C)c1c(CC(=O)NCc2ccc(C(=O)O)cc2)cc(C)cc1OP(=O)(O)O)C(C)(C)C(F)(F)F"
valuekind = "half-life at 2 μM"
experimentalresult = 5.5


* * *

Item-by-item account of Dog GI S9 [Intermediate A] %
assaySummary: Intestinal S9 Assay (dog GI S9)
Format: in vitro ADME
conditionDescription: 2 μM, 1.0 mg/mL S9 protein, TRIS pH 7.4
valueKind: Dog GI S9 [Intermediate A] % (%)

[[record]]
compound = "COC(=O)N[C@H](C(=O)N[C@@H](Cc1ccc(C#Cc2cnc(N3CC4CCC(C3)N4C3COC3)nc2)cc1)[C@H](CN(Cc1c(F)cc(-c2ccn(C(F)F)n2)cc1F)NC(=O)[C@@H](NC(=O)OC)C(C)(C)C(F)(F)F)OC(=O)CC(C)(C)c1c(CC(=O)NCc2ccc(S(N)(=O)=O)cc2)cc(C)cc1OP(=O)(O)O)C(C)(C)C(F)(F)F [Example 62]"
valuekind = "Dog GI S9 [Intermediate A] %"
experimentalresult = 3.1

[[record]]
compound = "COC(=O)N[C@H](C(=O)N[C@@H](Cc1ccc(C#Cc2cnc(N3CC4CCC(C3)N4C3COC3)nc2)cc1)[C@H](CN(Cc1c(F)cc(-c2ccn(C(F)F)n2)cc1F)NC(=O)[C@@H](NC(=O)OC)C(C)(C)C(F)(F)F)OC(=O)CC(C)(C)c1c(CC(=O)NCC(=O)O)cccc1OP(=O)(O)O)C(C)(C)C(F)(F)F [Example 7]"
valuekind = "Dog GI S9 [Intermediate A] %"
experimentalresult = 91

[[record]]
compound = "COC(=O)N[C@H](C(=O)N[C@@H](Cc1ccc(C#Cc2cnc(N3CC4CCC(C3)N4C3COC3)nc2)cc1)[C@H](CN(Cc1c(F)cc(-c2ccn(C(F)F)n2)cc1F)NC(=O)[C@@H](NC(=O)OC)C(C)(C)C(F)(F)F)OC(=O)CC(C)(C)c1c(CC(=O)N[C@@H](CCC(=O)O)C(=O)O)cc(C)cc1OP(=O)(O)O)C(C)(C)C(F)(F)F [Example 66]"
valuekind = "Dog GI S9 [Intermediate A] %"
experimentalresult = 68.6

[[record]]
compound = "COC(=O)N[C@H](C(=O)N[C@@H](Cc1ccc(C#Cc2cnc(N3CC4CCC(C3)N4C3COC3)nc2)cc1)[C@H](CN(Cc1c(F)cc(-c2ccn(C(F)F)n2)cc1F)NC(=O)[C@@H](NC(=O)OC)C(C)(C)C(F)(F)F)OC(=O)CC(C)(C)c1c(CC(=O)N2C[C@@H](C(=O)O)C[C@H]2C(=O)O)cc(C)cc1OP(=O)(O)O)C(C)(C)C(F)(F)F [Example 10]"
valuekind = "Dog GI S9 [Intermediate A] %"
experimentalresult = 18.4


* * *

assaySummary: Intestinal S9 Assay (dog GI S9)
Type: in vitro ADME
conditionDescription: dog, 1.0 mg/mL S9 protein, TRIS pH 7.4, read-out: Dog GI S9 T½
valueKind: half-life at 2 μM (h)

[[record]]
smilesstring = "COC(=O)N[C@H](C(=O)N[C@@H](Cc1ccc(C#Cc2cnc(N3CC4CCC(C3)N4C3COC3)nc2)cc1)[C@H](CN(Cc1c(F)cc(-c2ccn(C(F)F)n2)cc1F)NC(=O)[C@@H](NC(=O)OC)C(C)(C)C(F)(F)F)OC(=O)CC(C)(C)c1c(CC(=O)O)cccc1OP(=O)(O)O)C(C)(C)C(F)(F)F"
unittext = "h"
experimentalresult = 0.74

[[record]]
smilesstring = "COC(=O)N[C@H](C(=O)N[C@@H](Cc1ccc(C#Cc2cnc(N3CC4CCC(C3)N4C3COC3)nc2)cc1)[C@H](CN(Cc1c(F)cc(-c2ccn(C(F)F)n2)cc1F)NC(=O)[C@@H](NC(=O)OC)C(C)(C)C(F)(F)F)OC(=O)CC(C)(C)c1c(CC(=O)NCc2ccc(C#N)cc2)cc(C)cc1OP(=O)(O)O)C(C)(C)C(F)(F)F"
unittext = "h"
experimentalresult = 8.29

[[record]]
smilesstring = "COC(=O)N[C@H](C(=O)N[C@@H](Cc1ccc(C#Cc2cnc(N3CC4CCC(C3)N4C3COC3)nc2)cc1)[C@H](CN(Cc1c(F)cc(-c2ccn(C(F)F)n2)cc1F)NC(=O)[C@@H](NC(=O)OC)C(C)(C)C(F)(F)F)OC(=O)CC(C)(C)c1c(CC(=O)N2CCC[C@H]2C(=O)O)cc(C)cc1OP(=O)(O)O)C(C)(C)C(F)(F)F"
unittext = "h"
experimentalresult = 9.38


* * *

assaySummary: Intestinal S9 Assay (human GI S9)
Assay type: in vitro ADME
conditionDescription: 2 μM, 1.0 mg/mL S9 protein, TRIS pH 7.4
Could you label it Criterion met if measured Human GI S9 [Intermediate A] is 300 nM or higher, and Criterion not met otherwise?

[[record]]
compound = "COC(=O)N[C@H](C(=O)N[C@@H](Cc1ccc(C#Cc2cnc(N3CC4CCC(C3)N4C3COC3)nc2)cc1)[C@H](CN(Cc1c(F)cc(-c2ccn(C(F)F)n2)cc1F)NC(=O)[C@@H](NC(=O)OC)C(C)(C)C(F)(F)F)OC(=O)CC(C)(C)c1c(CC(=O)N[C@@H](CCC(=O)O)C(=O)O)cccc1OP(=O)(O)O)C(C)(C)C(F)(F)F [Example 6]"
classlabel = "Criterion met"

[[record]]
compound = "COC(=O)N[C@H](C(=O)N[C@@H](Cc1ccc(C#Cc2cnc(N3CC4CCC(C3)N4C3COC3)nc2)cc1)[C@H](CN(Cc1c(F)cc(-c2ccn(C(F)F)n2)cc1F)NC(=O)[C@@H](NC(=O)OC)C(C)(C)C(F)(F)F)OC(=O)CC(C)(C)c1c(CC(=O)N[C@@H](CCC(=O)O)C(=O)O)cc(C)cc1OP(=O)(O)O)C(C)(C)C(F)(F)F [Example 66]"
classlabel = "Criterion met"

[[record]]
compound = "COC(=O)N[C@H](C(=O)N[C@@H](Cc1ccc(C#Cc2cnc(N3CC4CCC(C3)N4C3COC3)nc2)cc1)[C@H](CN(Cc1c(F)cc(-c2ccn(C(F)F)n2)cc1F)NC(=O)[C@@H](NC(=O)OC)C(C)(C)C(F)(F)F)OC(=O)CC(C)(C)c1c(CC(=O)NCc2ccc(S(N)(=O)=O)cc2)cc(C)cc1OP(=O)(O)O)C(C)(C)C(F)(F)F [Example 62]"
classlabel = "Criterion not met"

[[record]]
compound = "COC(=O)N[C@H](C(=O)N[C@@H](Cc1ccc(C#Cc2cnc(N3CC4CCC(C3)N4C3COC3)nc2)cc1)[C@H](CN(Cc1c(F)cc(-c2ccn(C(F)F)n2)cc1F)NC(=O)[C@@H](NC(=O)OC)C(C)(C)C(F)(F)F)OC(=O)CC(C)(C)c1c(CC(=O)Nc2cccc(C(=O)O)c2)cc(C)cc1OP(=O)(O)O)C(C)(C)C(F)(F)F [Example 14]"
classlabel = "Criterion not met"

[[record]]
compound = "COC(=O)N[C@H](C(=O)N[C@@H](Cc1ccc(C#Cc2cnc(N3CC4CCC(C3)N4C3COC3)nc2)cc1)[C@H](CN(Cc1c(F)cc(-c2ccn(C(F)F)n2)cc1F)NC(=O)[C@@H](NC(=O)OC)C(C)(C)C(F)(F)F)OC(=O)CC(C)(C)c1c(CC(=O)NCC(=O)O)cccc1OP(=O)(O)O)C(C)(C)C(F)(F)F [Example 7]"
classlabel = "Criterion met"

[[record]]
compound = "COC(=O)N[C@H](C(=O)N[C@@H](Cc1ccc(C#Cc2cnc(N3CC4CCC(C3)N4C3COC3)nc2)cc1)[C@H](CN(Cc1c(F)cc(-c2ccn(C(F)F)n2)cc1F)NC(=O)[C@@H](NC(=O)OC)C(C)(C)C(F)(F)F)OC(=O)CC(C)(C)c1c(CC(=O)Nc2cc(C(=O)O)cc(C(=O)O)c2)cccc1OP(=O)(O)O)C(C)(C)C(F)(F)F [Example 19]"
classlabel = "Criterion met"

[[record]]
compound = "COC(=O)N[C@H](C(=O)N[C@@H](Cc1ccc(C#Cc2cnc(N3CC4CCC(C3)N4C3COC3)nc2)cc1)[C@H](CN(Cc1c(F)cc(-c2ccn(C(F)F)n2)cc1F)NC(=O)[C@@H](NC(=O)OC)C(C)(C)C(F)(F)F)OC(=O)CC(C)(C)c1c(CC(=O)N2C[C@@H](C(=O)O)C[C@H]2C(=O)O)cc(C)cc1OP(=O)(O)O)C(C)(C)C(F)(F)F [Example 10]"
classlabel = "Criterion not met"

